Target: human Yes1 enzyme (Homo sapiens)
Construct: made in house
Sequence (P07947 whole entry): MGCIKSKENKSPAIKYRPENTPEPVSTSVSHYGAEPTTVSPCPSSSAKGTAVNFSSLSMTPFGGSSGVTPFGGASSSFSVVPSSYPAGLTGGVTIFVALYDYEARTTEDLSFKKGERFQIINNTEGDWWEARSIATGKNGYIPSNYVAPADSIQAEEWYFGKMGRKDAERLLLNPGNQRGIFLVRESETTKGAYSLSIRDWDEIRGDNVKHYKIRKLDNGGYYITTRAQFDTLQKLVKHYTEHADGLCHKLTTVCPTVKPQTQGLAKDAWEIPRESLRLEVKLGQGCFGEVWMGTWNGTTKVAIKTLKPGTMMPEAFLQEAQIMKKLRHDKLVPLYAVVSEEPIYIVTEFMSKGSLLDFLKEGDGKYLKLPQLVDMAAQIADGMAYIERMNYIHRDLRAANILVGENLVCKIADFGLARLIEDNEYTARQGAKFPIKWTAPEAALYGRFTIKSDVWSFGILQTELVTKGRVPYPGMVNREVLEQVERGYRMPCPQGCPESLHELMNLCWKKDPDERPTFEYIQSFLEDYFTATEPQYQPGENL
Test: Yes1 enzyme inhibitory activity (time-resolved fluorometry, biotinylated peptide phosphorylation)
Type: biochemical
Conditions: read-out: YES_IC50
test_readout: IC50 (nM)

Sample answers from the record:
{"mol": "Cc1cc(-n2ncc(C(=O)c3cc4cc(OC5CCN(CCO)CC5)c(Br)cc4[nH]3)c2N)ccc1Oc1ccccc1F", "IC50, nM": 0.46}
{"mol": "Cc1cc(-n2ncc(C(=O)c3cc4cc(OC(F)F)c(N5CCN(S(C)(=O)=O)CC5)cc4[nH]3)c2N)ccc1Oc1ccccc1F", "IC50, nM": 2.4}
{"mol": "Cc1cc(-n2ncc(C(=O)c3cc4cc(OC5CCN(C(C)C)CC5)c(N5CCOC5=O)cc4[nH]3)c2N)ccc1Oc1ccccc1F", "IC50, nM": 0.37}

[I] Cc1cc2cc(C(=O)c3cnn(-c4cnc(Oc5c(F)cccc5F)cc4C)c3N)[nH]c2cc1N1C(=O)NC2(CCNCC2)C1=O
[II] Cc1cc(Oc2ccccc2F)ccc1-n1ncc(C(=O)c2cc3cc(OC4CCN(C(C)C)CC4)c(N4CCC(N5CCOCC5)CC4)cc3[nH]2)c1N
[III] Cc1cc(Oc2ccccc2F)ccc1-n1ncc(C(=O)c2cc3cc(F)c(N4CCOC4=O)cc3[nH]2)c1N
Q: # ascending order, key=IC50 Form entry: labels listed in requested order.
Ans: II, III, I
